Biological target: T1, 4H688-AA
T1 chain: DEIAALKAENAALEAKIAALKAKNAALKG
Test: two-hybrid library CCmax;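 further: natural log of median RNA to DNA barcode read ratio; higher means stronger binding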
Conditions: mean of both orientations
PROPERTY_NAME: interaction score
Reply with the value as a number alone.

Observe how each entry below is paired with its result.
>>> print(df.to_string())
                                     binder      property_name  measured
0  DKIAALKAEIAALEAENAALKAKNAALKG [4H2592-AA]  interaction score     -1.42
1  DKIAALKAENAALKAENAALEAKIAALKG [4H2774-AA]  interaction score    -0.923
2  DEIAALEAKNAALEAENAALEAKIAALKG [4H406-AA]  interaction score     -1.54
3  DKIAALKAKNAALEAKNAALKAEIAALEG [4H3001-AA]  interaction score     -1.46
4  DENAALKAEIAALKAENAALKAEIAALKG [4H1626-AA]  interaction score     -1.19

Looking up DENAALKAENAALKAEIAALKAEIAALKG [4H1738-AA] , I see its interaction score listed as -1.24

Input DKIAALEAKNAALKAEIAALEAKNAALKG [4H2504-AA] . Output interaction score: 0.978

Per the records, this binder ( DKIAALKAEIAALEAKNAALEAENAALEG [4H2611-AA] ) has interaction score equal to -1.66

interaction score reported for this binder DKIAALEAENAALEAKIAALKAENAALEG [4H2219-AA] : -0.493

The binder listed as DEIAALEAKIAALKAENAALKAENAALEG [4H347-AA] has a reported interaction score of -0.941

For this binder ( DKNAALEAKIAALEAKNAALEAKIAALEG [4H3381-AA] ), measured interaction score is -1.36

GET /value?item= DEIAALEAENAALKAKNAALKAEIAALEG [4H249-AA] &field=interaction score returns 0.32

// field: interaction score; key: DEIAALEAKIAALKAKNAALEAKNAALKG [4H376-AA] ; value = -1.96

According to the records, this binder DKNAALEAKNAALEAKIAALEAKIAALEG [4H3493-AA] displays interaction score of -1.63

Cited source: paper PMC10397247
